- Target Desc: Calcium/calmodulin-dependent protein kinase type II subunit alpha (Rattus norvegicus)
- Sequence (P11275 whole entry): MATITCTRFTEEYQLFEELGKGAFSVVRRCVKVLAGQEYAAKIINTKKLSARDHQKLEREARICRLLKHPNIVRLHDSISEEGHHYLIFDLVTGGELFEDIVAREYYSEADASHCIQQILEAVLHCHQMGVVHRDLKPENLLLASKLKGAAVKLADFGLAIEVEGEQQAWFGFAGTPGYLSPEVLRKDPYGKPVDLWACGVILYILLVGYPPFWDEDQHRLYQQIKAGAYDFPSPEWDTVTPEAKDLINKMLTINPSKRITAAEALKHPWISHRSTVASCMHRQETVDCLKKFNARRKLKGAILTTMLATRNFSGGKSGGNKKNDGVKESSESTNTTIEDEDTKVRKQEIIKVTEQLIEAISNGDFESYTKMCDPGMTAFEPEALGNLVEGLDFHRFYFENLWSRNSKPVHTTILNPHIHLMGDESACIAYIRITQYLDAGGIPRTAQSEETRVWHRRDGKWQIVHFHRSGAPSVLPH
- Assay Notes: Inhibition of rat brain Ca2+/CaM kinase II alpha subunit autophosphorylation measured after 2 mins in presence of [gamma-33P]ATP by SDS-PAGE analysis
Recorded Endpoint: IC50 (nM)
Record the value in nM, omitting the unit from your answer.

**Query** Recorded IC50 for `CN([C@@H](Cc1ccc(OS(=O)(=O)c2cccc3cnccc23)cc1)C(=O)N1CCN(c2ccccc2)CC1)S(=O)(=O)c1cccc2cnccc12` , please?
**Result** 450

* * *

- Assay Notes: Competitive inhibition of rat brain Ca2+/CaM kinase II assessed as inhibition constant in presence of [gamma-33P]ATP and varying concentration of calmodulin
- Type: tissue-based
Recorded Endpoint: pKi
pKi (log units): -log10 of the concentration in mol/L.

**Query** Could you share which pKi value was measured for `CN([C@@H](Cc1ccc(OS(=O)(=O)c2cccc3cnccc23)cc1)C(=O)N1CCN(c2ccccc2)CC1)S(=O)(=O)c1cccc2cnccc12` ?
**Result** 6.05
